- system: Neutrophil elastase (Homo sapiens)
- protocol.summary: Inactivation of human leukocyte (neutrophil) elastase (HLE)(HNE) as rate constant
- Assay type: functional
// classify(record): look up kobs/[I] (second-order inactivation rate constant) in ranges A: < 50000 M⁻¹ s⁻¹; B: ≥ 50000 M⁻¹ s⁻¹ and < 70000 M⁻¹ s⁻¹; C: ≥ 70000 M⁻¹ s⁻¹

(Q) Which kobs/[I] (second-order inactivation rate constant) band matches `COc1oc(=O)c2cc(NC(=O)CC(c3ccccc3)c3ccccc3)ccc2c1Cl` ?
(A) C

(Q) Which kobs/[I] (second-order inactivation rate constant) band matches COc1oc(=O)c2cc(NC(=O)C(NS(=O)(=O)c3ccc(C)cc3)c3ccccc3)ccc2c1Cl (configuration not stated) ?
(A) C

(Q) Which kobs/[I] (second-order inactivation rate constant) band matches `COc1oc(=O)c2cc(NC(=O)CCc3ccccc3)ccc2c1Cl` ?
(A) B
